Each item that follows carries a reported purified protein yield per well.
Experiment: purified protein yield per well (BCA); higher = higher soluble expression

SEQ_STRING	purified protein yield per well
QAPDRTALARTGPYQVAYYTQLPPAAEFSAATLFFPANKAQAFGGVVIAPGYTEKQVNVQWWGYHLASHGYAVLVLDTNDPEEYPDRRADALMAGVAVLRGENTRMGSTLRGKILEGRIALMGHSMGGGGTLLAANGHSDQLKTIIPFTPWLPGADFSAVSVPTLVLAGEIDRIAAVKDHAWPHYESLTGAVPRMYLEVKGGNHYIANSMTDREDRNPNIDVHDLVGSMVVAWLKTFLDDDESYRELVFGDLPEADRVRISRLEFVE [TEP006]	215 µg
FGGGTIYYPTSTADGTFGAVVISPGFTAYESSIAWLGPRLASQGFVVFTIDTNTTLDQPDSRGRQLLAALDYLTQRSSVRTRVDATRLGVMGHSMGGGGSLEAAKSRPSLKAAIPLTGWNTDKTWPELRTPTLVVGADGDSIAPVATHSEPFYESLPGSLDKAYLELRGASHFTP [TEP045]	< 25 µg

----------
Each item that follows carries a reported PET hydrolysis.
Assay: PET hydrolysis, aromatic products released after 48 h (umol product/mg enzyme); higher = more PET depolymerization activity
Conditions: substrate: cryPow; 60 °C; pH 8.5

SEQ_STRING	PET hydrolysis
ADNPYQRGPDPTNASIEAATGPFAVGTQPIVGASGFGGGQIYYPTDTSQTYGAVVIVPGFISVWAQLNWLGPRLASQGFVVIGIETSVITDLPDPRGDQALAALDWATTRSPVASRIDRTRLAAAGWSMGGGGLRRAALQRPSLKAIVGMAPWNGERNWSAVTVPTLFFGGSSDAVASPNDHAKPFYNSITRAEKDYIELRNADHFFPTSANTTMAKYFISWLKRWVDNDTRYTQFLCPGPSTGLFAPVSASMNTCPF [DP077]	26
ADNPYQRGPDPTQSSVSASRGTFATAQVGVPAGNGFGGGVIYHPTDTSQGTFGAVAIVPGYTATWAAEGAWMGHWLASFGFVVIGIDTNNRNDWDTARGTQLLAALDYLTQRSSVRDRVDPSRTAVMGHSMGGGGAMYAALQRPSLKTAVGLAPFSPSQNLTTTRVPTMLLSGQNDTTTTPASIVNLYNGIPSSVEKAYLELTGAGHGFPTSNNSTMMRNVIPWLKIFVDSDTRYTQFLCPLSDSNGIRTYQNTCPLVPSPVPTTTSTTSSTSTTTTSTTTTTTTSVPVGACSATYRTTNAWSGGYQGEVTVAAGDSAVNGWTVRWTLDSGQTISQVWNGTLSATGSAVSVRNASYNGSLRPGTSTTFGFIAGGAPSTPVLSCTSP [DP072]	3

----------
Experiment: PET hydrolysis, aromatic products released after 48 h (umol product/mg enzyme); higher = more PET depolymerization activity
Settings: substrate: cryPow; 40 °C; pH 7.5
REPORTED_METRIC: PET hydrolysis

SEQ_STRING	RELATIONAL_OPERATOR	TEST_VALUE
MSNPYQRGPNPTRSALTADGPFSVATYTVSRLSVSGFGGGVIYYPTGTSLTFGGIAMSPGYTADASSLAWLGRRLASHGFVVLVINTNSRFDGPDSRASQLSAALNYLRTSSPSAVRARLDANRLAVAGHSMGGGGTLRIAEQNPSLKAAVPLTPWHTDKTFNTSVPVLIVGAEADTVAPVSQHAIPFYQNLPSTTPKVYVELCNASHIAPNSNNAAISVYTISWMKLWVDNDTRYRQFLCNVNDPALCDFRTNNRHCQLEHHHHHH [LCC-ICCG]	=	130
ADNPYQRGPDPTNASIEAATGPFAVGTQPIVGASGFGGGQIYYPTDTSQTYGAVVIVPGFISVWAQLNWLGPRLASQGFVVIGIETSVITDLPDPRGDQALAALDWATTRSPVASRIDRTRLAAAGWSMGGGGLRRAALQRPSLKAIVGMAPWNGERNWSAVTVPTLFFGGSSDAVASPNDHAKPFYNSITRAEKDYIELRNADHFFPTSANTTMAKYFISWLKRWVDNDTRYTQFLCPGPSTGLFAPVSASMNTCPF [DP077]	=	90
AIEHRRGPAPSEQSVLAANGPFSHSTFAVSDAASAKFGKGTIYYPNDTSQGTFGGVAISPGYTSTEPHIAWLGTRLAAHGFVTITITTNSLYDNPTERGQQLLAALDYLANNAPLAIRQRLDTSRMGVVGHSMGGGGSLYAVWNRPALKAAVPLAPYHTIKNWSGIKTPTMIIGGSADGVAPVEEHSERFYSSMTYARERAYAELEGANHSGSFLFEDHPIIGKFTVAWLKRFIDGDTRYDQFLCPPPTGAYLTEYRASCPHA [DP006]	<	3
SAQVTRQAAGSYARGPAPTLAGIRAALGPFAYSTVTVTAAQAGGAFGGGTIYYPDDTSQGTFGGVAAVPGYQSAEKAVAWLGPRLASQGFVVITIATNGLTDQPTARGKQLLGALDYLTAQSPAAVRQRLDPNRLAVTGHSMGGGGTLYAAWTRPSLKAAVPLAPWHTIKNWSGITVPTLVQGGTQDTTAQVGTFAEPIYQSLTGARERAYAEIADAAHGTFVRENPLIGALEVAWLKRFVDDDGRYEQFLCPAPADSELTEYRDSCPSS [DP009]	=	6
SNPAPDTGSGDGSSSQYQIGPDPTVSFLEASSGPFSVRTSNVSSLVSGFGGGTIHYPTGVNRPMAAIVVIPGFVSAESSIDWWGPKLASYGFVVMTIGTNSGFDQPPSRARQINNALDYLVAQNTNSRSPVNGMIDTNRLGAMGWSMGGGGTLRVAEEGRIKAAIPLAPWDTTSFRSNRTPTLIFACGSDSIAPVRTHASPFYNQIPTSTPKIFIEINRGNHYCANGGNSNNATLGRLGVAWMKRFLDEDRRYSQFLCGPRHTSDRNISESRDTCNF [ESM186]	=	13

----------
Test: PET hydrolysis, aromatic products released after 48 h (umol product/mg enzyme); higher = more PET depolymerization activity
Conditions: substrate: cryPow; 40 °C; pH 6.5
Each item that follows carries a reported PET hydrolysis.

SEQ_STRING	RELATIONAL_OPERATOR	PET hydrolysis
APNAAIAAAPRVAPAANPYERGPAPTEESVKAEKGPFDIAQMPVPGGAGVFGGGTIWYPKDEAGPFGAVVVSPGFMTLEPLIQWYGRTLASHGFVVMTMATITPIDPPFSRGDELRSALDYLVTKSTVKDKIDPTRTALMGHSMGGGGTLDAASKLPDLKAAIPLAPWNLDYAPPAKIKAPTLIIGADNDPIAPTAAFADPFYAALTTQNRAYLKLKNAGHTFSFLGYNPTITKYTVSWLKRFVDNDTRYDQFLCPIPAASDTVAAYQGTCPLT [DP091]	<	3
AQTSQVVTANPHQRGPDPTPETVRAPQGTFAFSTYSVPASVTGFGQGTIYYPDDTTQGTFAGVAISPGYTGPEASVAWLGPRLASRGFVVITITTNSRYDQPTSRGKQLLAALDYLTKQSPTEVRQRLDATRLGVMGHSMGGGGALYAAYKRPSLKAAVPLAPWNLIKNWSGIRVPTLVVAGTADKTASAGAHSLPFYSSMTGARERAFADVTGADHLTFVREDPVIGALAVSWLKRFLDDDTRYAPFITEPVGLSRFLCSCPYAG [DP007]	=	8
MPPPPPPPPPVQTVTVEPGYGFGGGTIYYPQESTGRLPVVAAVPGFTETQEAVAWYGPLLARRGNIVITIDTISPTNAPKTRADQALAAIDYVVTQSAVSDIADASRTAVMGHSMGGGASLFAALKRPTLKAIVPLAPWARTTDFSGVAVPTLIVGCENDGIAAVGTYAEPFYESIPATTPKAYLEMAGGNHYCTNSEDPVIAGYVSAWTDRFLKGDTTASSRLCPPSPVGPISEYRSNCPY [TEP189]	=	56
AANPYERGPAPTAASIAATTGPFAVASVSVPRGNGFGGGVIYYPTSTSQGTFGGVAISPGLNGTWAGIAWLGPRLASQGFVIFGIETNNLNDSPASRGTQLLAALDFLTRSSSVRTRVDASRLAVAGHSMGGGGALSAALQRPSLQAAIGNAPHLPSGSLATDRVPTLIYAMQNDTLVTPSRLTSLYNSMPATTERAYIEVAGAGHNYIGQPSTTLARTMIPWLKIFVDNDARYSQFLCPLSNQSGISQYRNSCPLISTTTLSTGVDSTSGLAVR [ESM157]	=	50
AENPHQRGPNPTVAALEAAAGPFAVAKVSVPGGHGFGGGTITYPTDTSQGTFGAVAVSPGFIESEGAIAWFGPRLASHGFVVITISTNGLFDQPDARGAQLLAALDYVTKSSAVRDRVDPARLAVMGHSMGGGGALYATAQRPALKASIPLLAWSNTKSWGSVRVPTMVIGAENDFIASVGSHSEPFYQSLGGEKAYLEMNDADHFVTNSPTPTVGKLTVSWLKRFMDNDTRYDQFLCPAPPVGGPISEYRDTCPYI [DP017]	=	11
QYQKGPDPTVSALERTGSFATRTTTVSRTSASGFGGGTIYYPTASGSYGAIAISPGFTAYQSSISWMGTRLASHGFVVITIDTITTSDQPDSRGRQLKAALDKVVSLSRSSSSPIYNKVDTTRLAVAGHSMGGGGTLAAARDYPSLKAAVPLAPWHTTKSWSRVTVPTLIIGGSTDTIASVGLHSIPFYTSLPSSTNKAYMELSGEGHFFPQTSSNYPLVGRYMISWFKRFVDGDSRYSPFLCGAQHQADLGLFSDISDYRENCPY [ESM169]	=	32.5
MHPTPDRAKVLPVNVSRGPAEPPAARSARPGGRSAPDGLRPGRRRPVPSSEQGATDVQSHPPTPANRRTRTVATLALALTLVGGAGAIAPTAHAAAGHERGPNPTSAALEASRGPFSVSSTTVSSLSASGFGGGTIYYPNDTGQGTFGGVIVAPGFTASRSTMAWLAERLASHGFVVFNIDTITRSDQPDSRGRQLLAAADHLAEESSPAVRSRLDAGRIGVMGHSMGGGGTLAAAESRPSLQAAVPLTPWHTDKSWGSVQVPTMIIGAENDSVAPVSSHAEPFYNSLSSAQEKAYLELNGASHFAPNSSNSTLAKYSIAWMKRFVDDDLRYDQFLCPAPGRSTRIEEYRSSCPH [TEP081]	<	3
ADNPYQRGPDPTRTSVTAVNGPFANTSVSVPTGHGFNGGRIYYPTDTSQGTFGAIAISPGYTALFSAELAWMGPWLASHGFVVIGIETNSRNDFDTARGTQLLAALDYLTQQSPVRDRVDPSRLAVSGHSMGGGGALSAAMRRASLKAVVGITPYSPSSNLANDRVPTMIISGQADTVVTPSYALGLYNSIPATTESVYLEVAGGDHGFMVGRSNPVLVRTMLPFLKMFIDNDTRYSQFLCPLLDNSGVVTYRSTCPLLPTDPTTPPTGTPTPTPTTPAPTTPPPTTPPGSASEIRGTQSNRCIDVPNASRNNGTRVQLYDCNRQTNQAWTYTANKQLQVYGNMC [ESM106]	=	28
ADNPYQRGPNPTAASIAATTGPFAIASVSVARGNGFGGGVIYYPTDTSQGTFGAIAISPGLNGTWPGIAWLGPRLASQGFVVFGIETNNLNDSPTSRGTQLLAALDYLTQRSSVRTRVDATRLAVAGHSMGGGGALDAALRRPSLQAAIGNAPYLPSGNLSTDRVPTLIYAMQNDTLVPPSRLTTMYNTIPATTERGYIQITGAGHNYIGQPSTNLARTMIPWFKIFIDNDTRFSQFLCPLSNMSGISQYRNSCPLI [ESM159]	=	46.5
ALNPYQRGPDPTDALLEAPRGPFATASTTVSRLSVSGFGGGVIYYPTDTSQGTFGGIAISPGYTASWSSLDWLGPRIASHGFVVIGIDTLSRYDQPASRGRQLLAALDYLTQRSSVRGRVDASRLAVAGHSMGGGGSLEAADSRPSLQAAVPLAPWHTTKNWSGVRVPTMIIGGESDSVAPVSTHSELFYASIPASSEKAYLELNGASHFFPNTTNTTMAKSMVSWLKRFVDDDVRYDPFLCPGPDGSAVEEYRQTCPLS [TEP140]	<	3

The reported numbers originate from the supplement of paper PMC12455559.
